Numbers sourced from ChEMBL document CHEMBL1961873.

Target: Tyrosine-protein kinase JAK3 (Homo sapiens) (UniProt P52333)
Sequence (whole entry): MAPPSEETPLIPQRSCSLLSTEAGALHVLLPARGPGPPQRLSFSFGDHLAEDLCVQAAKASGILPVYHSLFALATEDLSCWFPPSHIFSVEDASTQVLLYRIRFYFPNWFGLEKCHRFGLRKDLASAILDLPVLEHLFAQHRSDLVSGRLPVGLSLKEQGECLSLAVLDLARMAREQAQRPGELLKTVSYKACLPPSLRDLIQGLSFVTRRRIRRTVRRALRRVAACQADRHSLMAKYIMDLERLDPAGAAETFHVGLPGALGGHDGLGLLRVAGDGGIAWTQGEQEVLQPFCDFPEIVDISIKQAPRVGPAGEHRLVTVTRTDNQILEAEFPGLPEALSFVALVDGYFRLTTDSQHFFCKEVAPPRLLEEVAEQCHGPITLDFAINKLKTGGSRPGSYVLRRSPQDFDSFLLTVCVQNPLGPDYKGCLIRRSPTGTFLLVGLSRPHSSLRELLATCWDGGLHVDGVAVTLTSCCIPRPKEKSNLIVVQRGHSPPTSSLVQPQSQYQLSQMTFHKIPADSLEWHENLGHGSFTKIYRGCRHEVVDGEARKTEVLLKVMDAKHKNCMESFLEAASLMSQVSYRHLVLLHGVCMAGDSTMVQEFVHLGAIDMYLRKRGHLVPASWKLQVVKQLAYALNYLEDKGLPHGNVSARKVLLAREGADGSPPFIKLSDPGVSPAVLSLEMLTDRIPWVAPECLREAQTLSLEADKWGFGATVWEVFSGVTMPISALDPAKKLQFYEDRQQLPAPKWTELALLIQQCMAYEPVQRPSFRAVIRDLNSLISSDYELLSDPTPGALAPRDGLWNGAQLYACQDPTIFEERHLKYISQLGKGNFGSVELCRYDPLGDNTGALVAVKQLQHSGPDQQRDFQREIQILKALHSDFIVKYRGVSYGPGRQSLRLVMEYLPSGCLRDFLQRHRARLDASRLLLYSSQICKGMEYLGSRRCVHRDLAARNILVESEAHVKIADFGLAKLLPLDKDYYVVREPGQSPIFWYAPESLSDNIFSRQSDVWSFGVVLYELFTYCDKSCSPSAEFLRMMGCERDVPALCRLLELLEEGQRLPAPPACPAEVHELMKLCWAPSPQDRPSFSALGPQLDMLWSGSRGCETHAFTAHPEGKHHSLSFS
Conditions: at 1 µM
Description: GSK_PKIS: JAK3 mean inhibition at 1 uM [Nanosyn]
Readout: inhibition (%)
Hi! Could you send only the number? It should be in %, unit omitted.

Any idea what its inhibition is? The compound is COC(=O)c1cncc(/C=C/c2c(C)cc(O)cc2C)c1
0.99

Same read-out for Cc1ccc2c(c1)/C(=N/Nc1ccc(S(N)(=O)=O)cc1)C(=O)N2 ?
4.38

Another: CN(c1ccc(NC(=O)Nc2ccc(OC(F)(F)F)cc2)cc1)c1ccnc(Nc2cccc(S(N)(=O)=O)c2)n1
-1.69

How about Cc1cc(O)cc(C)c1/C=C/c1cncc(C(=O)N(C)C)c1 ?
1.31

Consider next the compound Cc1ccc2c(-c3ccnc(Nc4cccc(C(F)(F)F)c4)n3)c(-c3ccccc3)nn2n1 in the same way.
-2.26

Now the same for CN(C)C(=O)O[C@@H]1CN[C@@H](C#Cc2cc3ncnc(Nc4ccc(OCc5cccc(F)c5)c(Cl)c4)c3s2)C1
2.09

Try this compound next: CS(=O)(=O)Nc1cccc(-c2ccc3c(NC(=O)C4CC4)n[nH]c3c2)c1
2.96

Next up: NC(=O)c1cccc(Nc2nccc(Nc3cccc(F)c3)n2)c1
2.72
